Tested on: M14 melanoma
assay info: NCI tumour cell line growth inhibition, 48 h
Recorded TGI for the following compounds
quantity name: TGI (µM)

| compound | quantity name | censoring operator | recorded result |
| --- | --- | --- | --- |
| Cc1ccnc2c1C(=O)C1=C(OC(C)(C)CC1O)C2=O (stereo unspecified) | TGI | = | 9.97 |
| CCc1cccc(C)c1NC(=O)CC1C(=O)Nc2ccccc2S1=O (stereo unspecified) | TGI | > | 100 |
| O=C1c2c(Br)sc(Br)c2C(=O)C1(O)O | TGI | = | 33.6 |
| Cc1c2ccc3ccccc3c2c[n+]2ccccc12 | TGI | = | 37.5 |
| CCOC(=O)c1sc2nc(SC)nc(Nc3ccc4c(c3)OCCO4)c2c1N | TGI | = | 31.7 |
| O=C(NCCN1CCOCC1)c1ccc(I)cc1 | TGI | > | 100 |
| CCOC(=O)C(C)(c1c(C)[nH]c2ccccc12)c1c(C)[nH]c2ccccc12 | TGI | = | 29.8 |
| Nc1ccc(C2=N/C(=C\c3cccc(N)c3)C(=O)O2)cc1 | TGI | > | 100 |
| CCOC(=O)CCC(NC(=O)c1ccc(NCc2ccc3nc(-c4ccccc4)c(Cl)nc3c2)cc1)C(=O)OCC (stereo unspecified) | TGI | = | 39.5 |
| O=Cc1ccc(-c2ccc(-c3ccc(CO)s3)o2)s1 | TGI | > | 70.6 |
| NC1(CCNC(=O)c2ccccc2)CCN(C(=O)c2ccccc2)CC1 | TGI | > | 100 |
| COc1cccc(-c2nc(-c3cnccn3)n(C/C=C/c3ccccc3)n2)c1 | TGI | > | 10 |
| O=C1c2ccc3c4ccccc4n(-c4ccccc4)c3c2C(=O)N1c1ccc(Cl)cc1 | TGI | > | 100 |
| Nc1nc(SCc2ccccc2Cl)c2[nH]cnc2n1 | TGI | > | 100 |
| CCCCCCCCCCCC(=O)OC[C@@H](C[As](=O)(O)O)OC(=O)CCCCCCCCCCC | TGI | = | 8.47 |
| CC(=O)OCC1OC(n2c(C)c(N=Nc3ccc(Cl)cc3)c(C)c(C#N)c2=S)C(OC(C)=O)C(OC(C)=O)C1OC(C)=O (stereo unspecified) | TGI | > | 100 |

----------
System: UACC-257 melanoma
assay info: NCI tumour cell line growth inhibition, 48 h
quantity name: TGI

| compound | system name | recorded result |
| --- | --- | --- |
| Cc1cc(C)nc(NC(P(=O)(O)O)P(=O)(O)O)n1 | UACC-257 melanoma | > 100 µM |
| c1ccc2c(c1)OCCOCCOc1ccccc1OCCO2 | UACC-257 melanoma | > 100 µM |
| COc1cc(C(=O)O[C@H](C(N)=O)[C@]2(C)CO2)c2cccc(C)c2c1 | UACC-257 melanoma | > 21.3 µM |
| Cn1nnnc1SC(F)(F)c1nc2ccccc2o1 | UACC-257 melanoma | > 100 µM |
| Cc1ccc(C(=O)NCc2ccccc2)cc1N=NN(C)C | UACC-257 melanoma | 88.2 µM |
| O=C1OCC2OC(=O)c3cc(O)c(O)c(O)c3-c3c(O)c(O)c(O)c4c3C(=O)OC(C2OC(=O)c2cc(O)c(O)c(O)c2-c2c1cc(O)c(O)c2O)C1OC(=O)C2C4=C(O)C(=O)C23Oc2cc(O)c4c(c2[C@H]13)O[C@H](c1ccc(O)c(O)c1)[C@@H](O)C4 (some centres undefined) | UACC-257 melanoma | > 100 µM |
| CN(C)CCNc1nc2ccccc2c2c(=O)c3cc(F)ccc3sc12 | UACC-257 melanoma | 4.16 µM |
| NC(=O)CNc1ccc([As]=[As]c2ccc(NCC(N)=O)cc2)cc1 (centres undefined) | UACC-257 melanoma | 39.6 µM |
| C[Si](C)(C)CN1C(=O)c2ccccc2C1(O)c1ccccc1 (centres undefined) | UACC-257 melanoma | > 100 µM |
| COC(=O)[C@]12CC[C@@H](C)[C@H](C)[C@@H]1C1=CC[C@@H]3[C@@]4(C)C(C=O)=C[C@@](C)(COC(=O)c5ccco5)[C@@H]4[C@H](O)C[C@@]3(C)[C@]1(C)CC2 | UACC-257 melanoma | 0.997 µM |
| Cc1n[n+](Cc2ccccc2)c2sc(N)nn12 | UACC-257 melanoma | > 100 µM |
| Cc1noc2c1-c1ccccc1C(c1ccc(Cl)cc1)=N[C@H]2CC(N)=O | UACC-257 melanoma | > 100 µM |
| NCCCNCCCCN1CCOC1=O | UACC-257 melanoma | > 100 µM |
| CCCCCCCCCCCCCCCCCCC1=C(O)C(=O)C=C(OC)C1=O | UACC-257 melanoma | > 100 µM |
| Cn1cc(-c2csc(-c3cn(C)c4ccc(F)cc34)n2)c2cnccc21 | UACC-257 melanoma | 3.26 µM |
| Cc1[nH]n(-c2nc(O)c(-c3ccccc3)c(=O)[nH]2)c(=O)c1CCO | UACC-257 melanoma | > 100 µM |
| O=C(Cn1c2ccc(Br)cc2c2nc3ccccc3nc21)NNC(=S)NC1CCCCC1 | UACC-257 melanoma | 30 µM |
| NCCCOc1cc(Cl)ccc1NC(=O)c1cc2ccccc2cc1OCCCN | UACC-257 melanoma | 3.69 µM |
| NC1(CCNC(=O)c2ccccc2)CCN(C(=O)c2ccccc2)CC1 | UACC-257 melanoma | > 100 µM |
| O=C1c2ccccc2C(=O)N1C/C=N/NS(=O)(=O)c1ccc(Br)cc1 | UACC-257 melanoma | > 100 µM |
| CC(=O)[CH-]C(=O)c1ccccc1.CC(=O)[CH-]C(=O)c1ccccc1.O=S(=O)([O-])c1cc([O-])c2c([O-])cc(S(=O)(=O)[O-])cc2c1.[Na+].[Ti+4] | UACC-257 melanoma | > 100 µM |
| CC1=NC(C)(COC(=O)C2(C)NC(C)(CO)CO2)COC1=O (centres undefined) | UACC-257 melanoma | > 100 µM |
| C/C=C\C(CC(=O)NCC(=O)c1c[nH]c2ccccc12)CC(=O)OC (centres undefined) | UACC-257 melanoma | > 100 µM |
| CC(Cl)CN1c2ccccc2Sc2ccc(Cl)cc21 (centres undefined) | UACC-257 melanoma | > 10 µM |
| Cc1ccc2[c](c1)[Sn]([c]1ccccc1)([c]1ccccc1)[c]1cc(C)ccc1N2C | UACC-257 melanoma | > 100 µM |
| C1COCCSC2=C(SCCO1)SC(=C1SC3=C(SCCOCCOCCS3)S1)S2 | UACC-257 melanoma | > 100 µM |
| CC1(C)O[C@H]2OC(CO)C(N=[N+]=[N-])[C@H]2O1 (some centres undefined) | UACC-257 melanoma | > 100 µM |
| NCCCN(CCCN)CCc1cn(C(=O)c2ccccc2)cn1 | UACC-257 melanoma | 25.2 µM |
| COc1ccc(N2C(=O)C(=O)N(c3ccc(N=Nc4ccccc4)cc3)C2=S)cc1 | UACC-257 melanoma | 34.3 µM |

----------
Tested on: LOX IMVI melanoma
assay info: NCI tumour cell line growth inhibition, 48 h

| compound | TGI |
| --- | --- |
| Cc1ccc(C)c(N2C(=O)C(=O)C(c3nc4ccccc4o3)/C(=N\NC(=O)c3ccccc3O)C2=O)c1 (centres undefined) | > 100 µM |
| COc1cc(-c2nnc3n2NC=C(C(=O)O)S3)cc(OC)c1OC | > 100 µM |
| C=C1CCCCCCCCC/C=C/1SCCCSC | > 100 µM |
| CCCO[C@@H]1[C@@H](OC(C)=O)[C@@H](OC(C)=O)C(C)(C)/C=C/[C@H](C)C(=O)[C@@]2(OC(C)=O)C[C@@](C)(OC(C)=O)[C@H](OC(C)=O)[C@@H]2[C@H]2OC(=O)CC[C@@]12OC(=O)c1ccccc1 | > 25 µM |

----------
Test system: UACC-62 melanoma
assay info: NCI tumour cell line growth inhibition, 48 h

| compound | system name | TGI |
| --- | --- | --- |
| Cc1nc2ccc(S(=O)(=O)Nc3nccs3)cc2c(=O)n1NS(=O)(=O)c1nccs1 | UACC-62 melanoma | > 100 µM |
| CNC(C)C(O)c1ccc2oc3cc(=O)c4ccccc4c-3nc2c1 (stereo not drawn) | UACC-62 melanoma | 14.3 µM |
| O=C1c2ccccc2OCC12OC21C=CC(Cl)=CC1 (stereo not drawn) | UACC-62 melanoma | > 100 µM |

----------
System: SN12C renal
assay info: NCI tumour cell line growth inhibition, 48 h
Recorded TGI for the following compounds
quantity name: TGI

| compound | system name | recorded result |
| --- | --- | --- |
| O=C1C(Br)=CC2(C=C1Br)CCNC1=C2C(=O)c2ncccc2C1=O | SN12C renal | 2.5 µM |
| Cc1ccnc2c1C(=O)C1=C(OC(C)(C)CC1O)C2=O (configuration not stated) | SN12C renal | 12.4 µM |
| O=C(NNc1cnccn1)c1nc2cc(F)ccc2n2cccc12 | SN12C renal | > 100 µM |
| C=C1CC[C@H]2C(=O)OC(c3ccoc3)C[C@]2(C)C/C=C\C=C/1C(=O)OC (some centres not stated) | SN12C renal | > 25 µM |
| Cc1nc2ccc(S(=O)(=O)Nc3nccs3)cc2c(=O)n1NS(=O)(=O)c1nccs1 | SN12C renal | > 100 µM |
| NCCN.O=C([O-])[O-].O=C([O-])[O-].[Co+3].[K+] | SN12C renal | > 100 µM |
| NC(=S)N/N=C1\CCCC\C1=C/c1ccccc1 | SN12C renal | > 100 µM |
| Oc1ccc(Oc2cnc3ccccc3n2)cc1 | SN12C renal | > 100 µM |
| Cc1ccc(N2C(=O)N(c3ccc(C)cc3)C3(SC=NN3C)C2=O)cc1 (configuration not stated) | SN12C renal | > 100 µM |
| Cc1ccc2occ/c(=N\Nc3ccccc3)c2c1 | SN12C renal | > 100 µM |
| CCOC(=O)C(Cc1ccc(O)cc1)Nc1nc(=O)c2c(=O)oc(Cl)cc2o1 (configuration not stated) | SN12C renal | 36.8 µM |
| CCc1nc(Cl)c(Cl)c(Cl)n1 | SN12C renal | > 100 µM |
| CCC(=O)OCN(C)c1nc(N(C)COC(=O)CC)nc(N(C)COC(=O)CC)n1 | SN12C renal | > 100 µM |
| O=c1[nH]nc(Cc2ccc(Cl)cc2)n1/N=C/c1cccs1 | SN12C renal | > 100 µM |
| COc1cc(Nc2nc3cc(C(F)(F)F)ccc3nc2C(=O)O)cc(OC)c1OC | SN12C renal | > 100 µM |
| C=C(C)[C@@H]1CC[C@]2(C)[C@H](CC[C@@H]3[C@@H]([C@@](C)(O)CCC=C(C)C)CC[C@]32C)[C@@]1(C)CCC(=O)O | SN12C renal | 40.5 µM |
| NC1(CCNC(=O)c2ccccc2)CCN(C(=O)c2ccccc2)CC1 | SN12C renal | > 100 µM |
| C1=NC(N(Cc2ccccc2)Cc2ccccc2)N(Cc2ccccc2)N1 (configuration not stated) | SN12C renal | 34.1 µM |
| COc1ccc(-c2cc(Nc3ccnc(N4CCOCC4)n3)on2)cc1 | SN12C renal | 16.6 µM |
| CN1CCCOC(c2ccc(Cl)cc2)O1 (configuration not stated) | SN12C renal | > 100 µM |
| COC(=O)C1=C(OC)[C@H]2C#C/C=C\C#C[C@@H]3Nc4c(cc(O)c5c4C(=O)c4ccccc4C5=O)[C@]24O[C@@]34[C@H]1C | SN12C renal | < 0.01 µM |
| COc1cc2c3c(n(CCCN(CCO)CCO)c(=O)c2cc1OC)-c1cc2c(cc1C3=O)OCO2 | SN12C renal | 0.285 µM |
| c1ccc2c(c1)c1ccccc1c1ccccc21 | SN12C renal | > 100 µM |
| COc1ccc(CNc2nc(NC3CCCCC3)nc(NC3CCCCC3)n2)cc1 | SN12C renal | > 100 µM |
| CS(=O)(=O)CS(=O)(=O)OCCCl | SN12C renal | 706 µM |
| O=C1OCC2OC(=O)c3cc(O)c(O)c(O)c3-c3c(O)c(O)c(O)c4c3C(=O)OC(C2OC(=O)c2cc(O)c(O)c(O)c2-c2c1cc(O)c(O)c2O)C1OC(=O)C2C4=C(O)C(=O)C23Oc2cc(O)c4c(c2[C@H]13)O[C@H](c1ccc(O)c(O)c1)[C@@H](O)C4 (some centres not stated) | SN12C renal | 42 µM |
| Nc1c(S(=O)(=O)c2ccccc2)c2nc3ccccc3nc2n2c1nc1ccccc12 | SN12C renal | > 87.2 µM |
